target: GSPT1 protein (Homo sapiens, UniProt P15170+Q96SW2)
Construct: host or cells: KG-1 cells
Sequence (P15170 whole entry): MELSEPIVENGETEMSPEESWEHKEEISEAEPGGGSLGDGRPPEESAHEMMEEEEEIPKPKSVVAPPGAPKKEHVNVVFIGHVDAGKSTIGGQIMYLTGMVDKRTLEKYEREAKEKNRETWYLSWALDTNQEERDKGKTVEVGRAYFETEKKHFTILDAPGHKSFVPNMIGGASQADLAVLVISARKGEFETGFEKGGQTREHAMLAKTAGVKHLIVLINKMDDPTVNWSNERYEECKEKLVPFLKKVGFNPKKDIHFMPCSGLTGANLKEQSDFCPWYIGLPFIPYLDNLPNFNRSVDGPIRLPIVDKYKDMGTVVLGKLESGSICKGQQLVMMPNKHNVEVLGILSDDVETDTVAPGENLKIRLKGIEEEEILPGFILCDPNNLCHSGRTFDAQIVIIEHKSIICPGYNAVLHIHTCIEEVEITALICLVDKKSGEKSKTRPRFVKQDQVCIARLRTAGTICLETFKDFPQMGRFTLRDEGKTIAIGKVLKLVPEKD
Sequence (Q96SW2 whole entry): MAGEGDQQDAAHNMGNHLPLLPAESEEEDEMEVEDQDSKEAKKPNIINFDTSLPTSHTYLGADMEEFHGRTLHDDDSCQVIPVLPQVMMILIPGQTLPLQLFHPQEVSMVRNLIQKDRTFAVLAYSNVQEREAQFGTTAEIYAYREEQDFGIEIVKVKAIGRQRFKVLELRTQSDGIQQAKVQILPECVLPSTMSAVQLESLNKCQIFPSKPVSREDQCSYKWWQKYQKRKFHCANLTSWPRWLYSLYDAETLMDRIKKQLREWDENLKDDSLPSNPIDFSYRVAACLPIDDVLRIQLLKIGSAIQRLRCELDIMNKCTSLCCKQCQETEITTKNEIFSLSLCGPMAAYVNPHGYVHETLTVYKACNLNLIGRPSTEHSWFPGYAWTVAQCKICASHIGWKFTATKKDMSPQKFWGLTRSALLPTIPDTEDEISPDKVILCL
Sequence (Q16531 whole entry partner): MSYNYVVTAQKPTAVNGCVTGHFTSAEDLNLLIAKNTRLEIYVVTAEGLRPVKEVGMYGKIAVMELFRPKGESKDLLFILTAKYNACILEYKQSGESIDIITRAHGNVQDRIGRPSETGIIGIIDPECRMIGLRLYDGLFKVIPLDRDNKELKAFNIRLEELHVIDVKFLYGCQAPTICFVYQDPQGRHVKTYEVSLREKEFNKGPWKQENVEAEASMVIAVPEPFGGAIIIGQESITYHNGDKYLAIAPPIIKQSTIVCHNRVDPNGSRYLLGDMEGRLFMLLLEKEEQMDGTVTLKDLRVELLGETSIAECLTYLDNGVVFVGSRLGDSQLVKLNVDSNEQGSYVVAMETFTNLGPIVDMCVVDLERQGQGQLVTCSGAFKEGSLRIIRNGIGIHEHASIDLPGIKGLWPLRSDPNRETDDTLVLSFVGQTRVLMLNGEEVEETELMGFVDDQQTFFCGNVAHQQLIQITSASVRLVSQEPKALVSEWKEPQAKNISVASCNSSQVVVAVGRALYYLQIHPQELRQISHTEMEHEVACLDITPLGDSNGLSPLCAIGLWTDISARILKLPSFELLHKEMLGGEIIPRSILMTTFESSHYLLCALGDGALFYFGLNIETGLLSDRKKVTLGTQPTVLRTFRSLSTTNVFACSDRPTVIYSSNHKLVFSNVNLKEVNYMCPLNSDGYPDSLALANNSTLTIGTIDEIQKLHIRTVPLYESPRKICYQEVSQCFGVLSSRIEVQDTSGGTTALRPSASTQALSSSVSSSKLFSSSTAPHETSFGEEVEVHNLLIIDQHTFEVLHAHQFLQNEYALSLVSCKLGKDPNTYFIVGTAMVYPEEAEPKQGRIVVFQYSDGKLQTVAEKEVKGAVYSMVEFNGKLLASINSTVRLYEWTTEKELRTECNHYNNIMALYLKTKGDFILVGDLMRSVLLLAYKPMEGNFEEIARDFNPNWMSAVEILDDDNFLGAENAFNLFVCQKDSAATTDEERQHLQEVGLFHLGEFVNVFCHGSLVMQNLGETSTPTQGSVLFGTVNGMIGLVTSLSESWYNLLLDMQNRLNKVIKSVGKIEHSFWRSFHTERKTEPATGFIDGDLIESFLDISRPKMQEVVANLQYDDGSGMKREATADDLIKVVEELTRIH
measurementDescription: Degradation of GSPT1 in KG-1 cells (Western blot)
Assay type: cell-based
conditionSet: KG-1 cells, compound concentration 200 nM, 4 hours
Description: KG-1 cells (ATCC) were grown in an IMDM culture medium (containing 20% FBS). After centrifugation and counting, the cell concentration was adjusted. The cells were plated onto 6-well plates at 10^6 cells/well, with 1350 µL per well. 150 µL of DMSO and the test compounds of the present disclosure (compound concentration: 200 nM) were added. The plates were incubated in an incubator at 37 °C with 5% CO2 for 4 hours. […] Signals were detected using a MINICHEMITM imaging system. […]
Item-by-item account of percent GSPT1 degradation at 0.2 µM

Here is how some molecules turned out for percent GSPT1 degradation at 0.2 µM.
molecule	target	percent GSPT1 degradation at 0.2 µM
O=C1CCC(N2Cc3cc(CNC(=O)C4COc5ccc(Cl)cc5C4)ccc3C2=O)C(=O)N1 (stereo not shown) [Compound B-3]	GSPT1 protein (Homo sapiens, UniProt P15170+Q96SW2)	> 80%
O=C1CCC(N2Cc3c(ccc(CNC(=O)C4=Cc5cccc(OC(F)(F)F)c5OC4)c3F)C2=O)C(=O)N1 (stereo not shown) [Compound A-43]	GSPT1 protein (Homo sapiens, UniProt P15170+Q96SW2)	> 80%
C=Cc1ccc2c(c1)C=C(C(=O)NCc1ccc3c(c1)CN(C1CCC(=O)NC1=O)C3=O)CO2 (stereo not shown) [Compound A-14]	GSPT1 protein (Homo sapiens, UniProt P15170+Q96SW2)	50 to 80%
COc1ccc2c(c1)C=C(C(=O)NCc1ccc3c(c1)CN(C1CCC(=O)NC1=O)C3=O)CO2 (stereo not shown) [Compound A-8]	GSPT1 protein (Homo sapiens, UniProt P15170+Q96SW2)	50 to 80%
Cc1cccc2c1OCC(C(=O)NCc1ccc3c(c1)CN(C1CCC(=O)NC1=O)C3=O)=C2 (stereo not shown) [Compound A-21]	GSPT1 protein (Homo sapiens, UniProt P15170+Q96SW2)	> 80%

Which percent GSPT1 degradation at 0.2 µM is listed for COc1cccc2c1OCC(C(=O)NCc1ccc3c(c1)CN(C1CCC(=O)NC1=O)C3=O)=C2 (stereo not shown) [Compound A-20] ?
> 80%

Which percent GSPT1 degradation at 0.2 µM is listed for Cc1ccc2c(c1)C=C(C(=O)NCc1ccc3c(c1)CN(C1CCC(=O)NC1=O)C3=O)CO2 (stereo not shown) [Compound A-7] ?
> 80%

----------
measurementDescription: in vivo
conditionSet: male, SD, rat, po, 10 mg/kg
assayEndpoint: AUC(0-t) (ng·h/mL)
The answer is to be given in ng·h/mL; state only the numeric part.

Which AUC(0-t) is listed for O=C1CCC(N2Cc3cc(CNC(=O)C(F)(F)c4ccc(Cl)cc4)ccc3C2=O)C(=O)N1 (stereo not shown) [CC-90009] ?
1890

----------
Item-by-item account of pIC50
System: KG-1 cells
measurementDescription: Antiproliferative activity against KG-1 cells (CCK8)
Format: cell-based
conditionSet: Homo sapiens, 72 hours
pIC50: −log10 of the molar value.

Here is how some compounds turned out for pIC50.
compound	pIC50
O=C1CCC(N2Cc3cc(CNC(=O)C4=Cc5c(F)cc(F)cc5OC4)ccc3C2=O)C(=O)N1 (stereo not shown) [Compound A-34]	8.00 to 9.00
O=C1CCC(N2Cc3cc(CNC(=O)C4COc5ccc(OC(F)(F)F)cc5C4)ccc3C2=O)C(=O)N1 (stereo not shown) [Compound B-4]	> 9.00
O=C1CCC(N2Cc3c(ccc(CNC(=O)C4=Cc5cc(OC(F)(F)F)ccc5OC4)c3F)C2=O)C(=O)N1 (stereo not shown) [Compound A-42]	8.00 to 9.00

Could you share what pIC50 was measured for O=C1CCC(N2Cc3cc(CNC(=O)C4COc5ccc(F)cc5C4)ccc3C2=O)C(=O)N1 (stereo not shown) [Compound B-2] , tested on KG-1 cells?
8.00 to 9.00

----------
Test system: KG-1 cells
measurementDescription: Antiproliferative activity against KG-1 cells (CCK8)
Format: cell-based
conditionSet: Homo sapiens, 72 hours
assayEndpoint: IC50

Here is how some compounds turned out for IC50.
compound	IC50
COc1cccc2c1OCC(C(=O)NCc1ccc3c(c1)CN(C1CCC(=O)NC1=O)C3=O)=C2 (stereo not shown)	0.001 to 0.01 µM
Cc1cc2c(cc1C)OCC(C(=O)NCc1ccc3c(c1)CN(C1CCC(=O)NC1=O)C3=O)=C2 (stereo not shown)	0.01 to 0.1 µM
O=C1CCC(N2Cc3c(ccc(CNC(=O)C4=Cc5cccc(OC(F)(F)F)c5OC4)c3F)C2=O)C(=O)N1 (stereo not shown)	0.001 to 0.01 µM
O=C1CCC(N2Cc3cc(CNC(=O)C4=Cc5cc(-c6ccccc6)ccc5OC4)ccc3C2=O)C(=O)N1 (stereo not shown)	0.1 to 1 µM
O=C1CCC(N2Cc3cc(CNC(=O)C4=Cc5cccc(OC(F)(F)F)c5OC4)ccc3C2=O)C(=O)N1 (stereo not shown)	0.001 to 0.01 µM
O=C1CCC(N2Cc3cc(CNC(=O)C4=Cc5cc(F)cc(F)c5OC4)ccc3C2=O)C(=O)N1 (stereo not shown)	0.001 to 0.01 µM
O=C1CCC(N2Cc3c(CNC(=O)C4=Cc5cc(OC(F)(F)F)ccc5OC4)cccc3C2=O)C(=O)N1 (stereo not shown)	0.01 to 0.1 µM
O=C1CCC(N2Cc3cc(CNC(=O)C4COc5ccccc5C4)ccc3C2=O)C(=O)N1 (stereo not shown)	0.01 to 0.1 µM

Which IC50 is listed for O=C1CCC(N2Cc3cc(CNC(=O)C4=Cc5cccc(F)c5OC4)ccc3C2=O)C(=O)N1 (stereo not shown) ?
0.001 to 0.01 µM

Which IC50 is listed for COc1ccc2c(c1)C=C(C(=O)NCc1ccc3c(c1)CN(C1CCC(=O)NC1=O)C3=O)CO2 (stereo not shown) ?
0.01 to 0.1 µM

Which IC50 is listed for O=C1CCC(N2Cc3cc(CNC(=O)C4=Cc5c(F)cccc5OC4)ccc3C2=O)C(=O)N1 (stereo not shown) ?
0.01 to 0.1 µM

Which IC50 is listed for O=C1CCC(N2Cc3cc(CNC(=O)C4=Cc5cc(NC(=O)C6CCC6)ccc5OC4)ccc3C2=O)C(=O)N1 (stereo not shown) ?
0.1 to 1 µM

Which IC50 is listed for Cc1cccc2c1OCC(C(=O)NCc1ccc3c(c1)CN(C1CCC(=O)NC1=O)C3=O)=C2 (stereo not shown) ?
0.001 to 0.01 µM

Which IC50 is listed for Cc1ccc2c(c1)C=C(C(=O)NCc1ccc3c(c1)CN(C1CCC(=O)NC1=O)C3=O)CO2 (stereo not shown) ?
0.001 to 0.01 µM

Which IC50 is listed for CN(C)c1ccc2c(c1)C=C(C(=O)NCc1ccc3c(c1)CN(C1CCC(=O)NC1=O)C3=O)CO2 (stereo not shown) ?
0.01 to 0.1 µM

Which IC50 is listed for O=C1CCC(N2Cc3cc(CNC(=O)C(F)(F)c4ccc(Cl)cc4)ccc3C2=O)C(=O)N1 (stereo not shown) ?
0.01 to 0.1 µM

Which IC50 is listed for O=C1CCC(N2Cc3cc(CNC(=O)C4=Cc5cc(Cl)ccc5OC4)ccc3C2=O)C(=O)N1 (stereo not shown) ?
0.01 to 0.1 µM

----------
Item-by-item account of pIC50
Tested on: KG-1 cells
measurementDescription: Antiproliferative activity against KG-1 cells (CCK8)
Type: cell-based
conditionSet: Homo sapiens, 72 hours
pIC50: −log10 of the molar value.

compound	pIC50
Cc1cc2c(cc1F)OCC(C(=O)NCc1ccc3c(c1)CN(C1CCC(=O)NC1=O)C3=O)=C2 (stereo not drawn)	7.00 to 8.00
O=C1CCC(N2Cc3cc(CNC(=O)C4=Cc5cc(NC(=O)CO)ccc5OC4)ccc3C2=O)C(=O)N1 (stereo not drawn)	≤ 6.00
Cc1ccc(C)c2c1C=C(C(=O)NCc1ccc3c(c1)CN(C1CCC(=O)NC1=O)C3=O)CO2 (stereo not drawn)	7.00 to 8.00
Cc1cc(F)cc2c1OCC(C(=O)NCc1ccc3c(c1)CN(C1CCC(=O)NC1=O)C3=O)=C2 (stereo not drawn)	8.00 to 9.00
O=C1CCC(N2Cc3cc(CNC(=O)C4=Cc5cc(OC(F)(F)F)ccc5OC4)ccc3C2=O)C(=O)N1 (stereo not drawn)	7.00 to 8.00
O=C1CCC(N2Cc3cc(CNC(=O)C4COc5ccc(Cl)cc5C4)ccc3C2=O)C(=O)N1 (stereo not drawn)	8.00 to 9.00
Nc1ccc2c(c1)C=C(C(=O)NCc1ccc3c(c1)CN(C1CCC(=O)NC1=O)C3=O)CO2 (stereo not drawn)	7.00 to 8.00
O=C1CCC(N2Cc3cc(CNC(=O)C4=Cc5c(F)ccc(F)c5OC4)ccc3C2=O)C(=O)N1 (stereo not drawn)	8.00 to 9.00
O=C1CCC(N2Cc3cc(CNC(=O)C4=Cc5cccc(C(F)(F)F)c5OC4)ccc3C2=O)C(=O)N1 (stereo not drawn)	> 9.00
O=C1CCC(N2Cc3cc(CNC(=O)C4=Cc5ccc(F)c(F)c5OC4)ccc3C2=O)C(=O)N1 (stereo not drawn)	8.00 to 9.00

Which pIC50 is listed for O=C1CCC(N2Cc3cccc(CNC(=O)C4=Cc5cc(OC(F)(F)F)ccc5OC4)c3C2=O)C(=O)N1 (stereo not drawn) ?
7.00 to 8.00

Which pIC50 is listed for O=C1CCC(N2Cc3cc(CNC(=O)C4=Cc5cc(F)ccc5OC4)ccc3C2=O)C(=O)N1 (stereo not drawn) ?
7.00 to 8.00

Which pIC50 is listed for O=C1CCC(N2Cc3cc(CNC(=O)C4=Cc5cc(NC(=O)C6CC6)ccc5OC4)ccc3C2=O)C(=O)N1 (stereo not drawn) ?
6.00 to 7.00

Which pIC50 is listed for COc1cccc2c1C=C(C(=O)NCc1ccc3c(c1)CN(C1CCC(=O)NC1=O)C3=O)CO2 (stereo not drawn) ?
8.00 to 9.00

Which pIC50 is listed for CC(=O)Nc1ccc2c(c1)C=C(C(=O)NCc1ccc3c(c1)CN(C1CCC(=O)NC1=O)C3=O)CO2 (stereo not drawn) ?
≤ 6.00
